Kindly supply the reported protein stability index values for the records listed here.
B1: SLC35F2 (parent)
chain: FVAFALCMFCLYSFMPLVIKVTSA

Variants of: B1
Experiment: protein stability index of a GFP-peptide fusion (GPS, HEK-293T) (PSI 1-6); higher = more stable;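 note: lentivirally expressed fusions sorted by FACS into six bins by GFP to DsRed ratio, PSI derived from sequencing read proportions per bin multiplied by bin number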
Settings: c terminus: a fixed tail appended
Number only, no unit.

# variant FVAFALCMFRLYSFMPLVIKVTSA ; its protein stability index = 3.21

# variant FVAFALNMFCLYSFMPLVIKVTSA ; its protein stability index = 4.12

# variant FVAFDLCMFCLYSFMPLVIKVTSA ; its protein stability index = 3.05

# variant FVAFALCMFCLYSFMPGVIKVTSA ; its protein stability index = 2.43

# variant FVAFALCMFSLYSFMPLVIKVTSA ; its protein stability index = 3.53

# variant FVAFALCMYCLYSFMPLVIKVTSA ; its protein stability index = 2.79

# variant FVAFAACMFCLYSFMPLVIKVTSA ; its protein stability index = 2.8

# variant FVAMALCMFCLYSFMPLVIKVTSA ; its protein stability index = 2.64

# variant FVAFALCMFCEYSFMPLVIKVTSA ; its protein stability index = 4.11

# variant FVAFALCMFCLYSFMALVIKVTSA ; its protein stability index = 3.6

# variant EVAFALCMFCLYSFMPLVIKVTSA ; its protein stability index = 3.64

# variant FVAFALCMFCLYSVMPLVIKVTSA ; its protein stability index = 3.79

# variant FVAFALCMFTLYSFMPLVIKVTSA ; its protein stability index = 2.52

# variant FVAFALCMQCLYSFMPLVIKVTSA ; its protein stability index = 2.59

# variant FVAFALCMFCLYSFMPLVIKVTLA ; its protein stability index = 2.89

# variant FVAFALCMFCLYSFMPLLIKVTSA ; its protein stability index = 2.65
